In this section we review reported growth inhibition values for a set of compounds.
Test: NCI Yeast Anticancer Drug Screen. Data for the mlh1 rad18 strain (AID 175)
Details: S. cerevisiae mlh1 rad18 strain growth inhibition; at 50.0 µM; hits give high values
This is part of a sample that, as a whole, favours compounds with a hit. Of some 79,000 tested, about 15% had one in any assay.
ASSAY METRIC: growth inhibition (%)

INSERT INTO assay_data (compound, readout_value) VALUES
  ('CCc1ccc(C(O)C(=O)O)cc1 (stereo not drawn)', -3.75),
  ('C/C(=N\NC(=S)N1CCCCCC1)c1nccs1', 2.15),
  ('CCC1=C[C@H]2CN(CCc3c([nH]c4ccccc34)[C@@](C(=O)OC)(c3cc4c(cc3OC)N(C)[C@H]3[C@@](O)(C(=O)NC)[C@H](OC(C)=O)[C@]5(CC)C=CCN6CC[C@]43[C@@H]65)C2)C1', -12.4),
  ('Cc1cc(N)ccc1C(=O)O', 2.45),
  ('CC(=Nc1ccc(C)cc1)NNc1nc2ccccc2s1', 25),
  ('CC1=C(C(=O)NNC(=O)CC#N)CC(C(=O)NNC(=O)CC#N)=C(C)N1', -0.05),
  ('CNCCCCCCNc1cc(OC)cc2cccnc12', 58.8),
  ('CC(C)c1ccc(/C=C/C(=O)c2ccc([N+](=O)[O-])cc2)cc1', 3.15),
  ('CC#CC(O)(C(=O)OC1CCC2CCC1N2C)C1CCCC1 (stereo not drawn)', -4.65),
  ('C/C=C\CCCCC', 10.9),
  ('CCOC(=O)C(=NNc1cc(OC)c(Cl)cc1OC)C(=O)OCC', 6.05),
  ('O=C1CCC2(CC1)SCCCS2', -17.1),
  ('COc1ccc(C(C)=O)cc1C=O', 16.2),
  ('O=C(NCCCCCCCCCCNC(=O)C12CC3CC(CC(C3)C1)C2)C12CC3CC(CC(C3)C1)C2', -14.5),
  ('COc1cccc(N2C(=O)/C(=C/c3ccc(N(CCC#N)CCC#N)cc3)N=C2c2cc([N+](=O)[O-])ccc2Cl)c1', 28.9),
  ('CN(C)c1ccc(C=C2C(=O)OC(C)(C)OC2=O)cc1Br', 10.7),
  ('C/C=C(/C)C(=O)OC12CC(C)C3(O)C(C=C(CO)C[C@]4(O)C(=O)C(C)=CC34)C1C2(C)C (stereo partly drawn)', 1.35),
  ('c1cc2c3c(cccc3c1)-c1nc3ccccc3nc1-2', 19.8),
  ('CCCCOC(=O)/C=C/C(=O)N1CCN(C(=O)/C=C/C(=O)OCCCC)C(C)C1 (stereo not drawn)', 34.6),
  ('CCN(CC)c1ccc(CO)cc1', -13.2),
  ('CCOC(=O)c1[nH]cnc1N', -3.65),
  ('Fc1ccc(-c2ccc(F)cc2)cc1', -23.1),
  ('NC1(c2ccccc2)CON=C(c2ccccc2)C1 (stereo not drawn)', 16.9),
  ('Cc1ccccc1S(=O)(=O)NC1c2ccccc2Oc2ccccc21', -7.9),
  ('CCOC(=O)C(=N\Nc1cc(C)cc(C)c1)/C(C)=N\NC(N)=S', 45.6),
  ('O=C(O)CS/C(=N\S(=O)(=O)c1ccccc1)Nc1cccc(Cl)c1', -7.85),
  ('O=C(O)C1=NN(c2cc(Cl)c(S(=O)(=O)O)cc2Cl)C(=O)C1', -32.9),
  ('CCOc1ccc(Br)cc1/C=N\NC(=O)c1ccccc1N(C)C', -11.2),
  ('COC(=O)c1ccc(SCCC(=O)CO)cc1', 23.9),
  ('Cn1c(=O)c2nsnc2n(C)c1=O', 14.1),
  ('CCO[Si](OCC)(OCC)c1ccccc1', -15.8),
  ('CCOC(Nc1ccc(Cl)cc1Cl)C(=O)c1ccccc1 (stereo not drawn)', 1.8),
  ('CC1(C)C2CC3OC3(C)C1C2 (stereo not drawn)', -10.8),
  ('Cn1c(N)c(NC(=O)CC#N)c(=O)n(C)c1=O', 21.1),
  ('CSC(=O)c1sc(SC)[n+](-c2ccccc2)c1O', -7.9),
  ('c1ccc2oc(N3CCN(c4nc5ccccc5o4)CC3)nc2c1', -12.2),
  ('CC1(c2ccccc2)CCC(=O)NC1 (stereo not drawn)', 11.6),
  ('Nc1c(Cl)ncnc1NCCc1ccccc1', -11.8),
  ('O=C(Nc1ccc(F)c([N+](=O)[O-])c1)Nc1cc(C(F)(F)F)ccc1Cl', 24.2),
  ('Oc1c(Br)cc(Br)cc1/C=N/N=C/c1cc(Br)cc(Br)c1O', 7.5),
  ('O=[N+]([O-])c1ccc(Nc2ccccc2)c([N+](=O)[O-])c1', 8.5),
  ('O=C(O)C1CCC1C(=O)O (stereo not drawn)', -2.5),
  ('Cc1ccc(Nc2nnc(Nc3ccc(C)cn3)c3ccccc23)nc1', -7.95),
  ('CC(C)NC(=O)OCCN=c1c2ccccc2ccc2ccccc12', 38.9),
  ('C(=N\N(CCCCN(/N=C/c1ccccc1)c1ccccc1)c1ccccc1)/c1ccccc1', 23.9),
  ('CCCc1nnnn1C12CC3CC(CC(C3)C1)C2', 28.1),
  ('CC1(C)OC(=O)C(=CN(C2CCCCC2)C2CCCCC2)C(=O)O1', -13.3),
  ('O=C1OCCCC1(Cc1ccccc1)Cc1ccccc1', 16.5);

Hey, just so you know, these numbers are from PubChem BioAssay (NCI).
